Lab note: IC50 readings collected with UniProtKB P09874 for the following compounds.
Sequence (P09874 whole entry): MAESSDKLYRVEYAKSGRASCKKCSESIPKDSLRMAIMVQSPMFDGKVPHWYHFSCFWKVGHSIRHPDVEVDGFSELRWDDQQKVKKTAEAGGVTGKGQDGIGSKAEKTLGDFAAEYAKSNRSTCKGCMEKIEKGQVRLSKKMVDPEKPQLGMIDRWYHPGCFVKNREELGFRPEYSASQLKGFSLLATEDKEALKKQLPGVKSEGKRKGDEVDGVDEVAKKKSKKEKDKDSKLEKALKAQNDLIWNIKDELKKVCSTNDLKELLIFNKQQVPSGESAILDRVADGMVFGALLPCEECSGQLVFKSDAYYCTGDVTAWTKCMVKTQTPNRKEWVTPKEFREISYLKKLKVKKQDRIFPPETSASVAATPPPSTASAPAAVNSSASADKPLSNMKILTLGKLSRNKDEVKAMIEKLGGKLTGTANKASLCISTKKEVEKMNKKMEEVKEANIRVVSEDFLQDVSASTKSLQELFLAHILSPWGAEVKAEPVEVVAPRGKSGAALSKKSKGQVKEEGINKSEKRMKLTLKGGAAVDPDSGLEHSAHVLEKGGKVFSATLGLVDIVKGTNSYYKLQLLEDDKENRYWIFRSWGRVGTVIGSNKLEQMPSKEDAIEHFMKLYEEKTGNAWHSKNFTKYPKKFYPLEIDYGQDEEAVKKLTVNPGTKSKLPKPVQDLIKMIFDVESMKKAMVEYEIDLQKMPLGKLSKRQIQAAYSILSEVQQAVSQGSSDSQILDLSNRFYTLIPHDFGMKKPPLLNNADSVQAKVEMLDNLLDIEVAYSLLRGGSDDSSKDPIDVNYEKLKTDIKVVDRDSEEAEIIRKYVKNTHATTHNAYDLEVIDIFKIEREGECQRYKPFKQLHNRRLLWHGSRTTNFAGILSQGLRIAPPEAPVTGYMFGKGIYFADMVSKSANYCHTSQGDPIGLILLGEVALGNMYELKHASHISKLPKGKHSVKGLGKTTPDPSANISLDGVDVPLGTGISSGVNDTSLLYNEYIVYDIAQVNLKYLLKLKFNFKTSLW
Where a name gives a salt, the structure may show the parent alone.

compound	result
CCn1c(=O)[nH]c2cc(CN3CCN(c4ccc(NC(C)=O)nc4C)CC3)sc2c1=O [Compound 528]	< 100 nM
CCn1c(=O)[nH]c2cc(CN3CCN(c4ccc(F)cc4F)CC3)ccc2c1=O [Compound 226, formate]	< 100 nM
CCn1c(=O)[nH]c2c(F)c(CN3CCN(c4ccc(C(=O)NC)nc4C)CC3)ccc2c1=S [Compound 184]	< 100 nM
CCn1c(=O)[nH]c2cc(CN3CCN(c4ccc(C(=O)NC)nc4C)CC3)c(C#N)cc2c1=S [Compound 505, trifluoroacetate]	< 100 nM

Take each entry in turn and give its IC50.
1. CCn1c(=O)[nH]c2cc(CN3CCN(c4ccc(C(=O)NC)nc4C)CC3)cc(Br)c2c1=S [Compound 501, formate]
2. CCn1c(=O)[nH]c2cc(CN3CCN(c4ccc(C(=O)NC)nc4)CC3)ccc2c1=O [Compound 3, formate]
3. CCn1c(=O)[nH]c2cc(CN3CCN(c4ccc(C(=O)NC)nc4)CC3)sc2c1=O [Compound 86, formate]
4. CCC(=O)c1ccc(N2CCN(Cc3cc4[nH]c(=O)n(CC)c(=O)c4s3)CC2)c(C)n1 [Compound 326, formate]
5. CCn1c(=O)[nH]c2cc(CN3CCN(c4ccc(C(=O)NC)nc4C)CC3)ccc2c1=S [Compound 51, formate]

stdout:
1. < 100 nM
2. < 100 nM
3. < 100 nM
4. < 100 nM
5. < 100 nM
